Target: recombinant RBD derived from SARS-CoV-2 (Sino Biological) (SARS-CoV-2, ancestral (Wuhan-Hu-1) …, UniProt P0DTC2)
Experiment: ELISA

[
  {
    "binder": "B8-IgG1 (antibody, V domains shown) VH: EVQLVQSGAEVKKPGSSVKVSCKASGGTFSNYGISWVRQAPGQGLEWMGRILPTFGTANSAQKFQGRVTITADESTGTAYMELRSLRSEDTAVYYCAKEGLAFLGYGMDVWGQGTTVTVSS VL: EIVLTQSPGTLSLSPGERATLSCRASQSVSSYLAWYQQKPGQAPRLLIYDASNRATGIPARFIGSGSGTDFTLTISSLEPEDFAVYFCQQRSNWPLTFGGGTKVEIK",
    "binding result": "binds"
  }
]
